# Test Protocol: Binding affinity to sigma 2 receptor in human SK-N-SH cells
# Format: cell-based
pKi: −log10 of the molar value.

# Compound, pKi
rows = [
    ("CC(C)=CCN1CC[C@]2(C)c3cc(O)ccc3C[C@H]1[C@H]2C [(+)-PENTAZOCINE]", 5.73),
]

---

# Test Protocol: Displacement of [3H]DTG form sigma 2 receptor in rat liver membrane
# Assay type: cell membranes
pKi: −log10 of the molar value.

# Compound, pKi
rows = [
    ("COc1cccc2c1CCCC2CCCN1CCN(C2CCCCC2)CC1 (stereo unspecified)", 9.17),
]

---

# System: Sigma non-opioid intracellular receptor 1 (Cavia porcellus, UniProt Q60492)
# Sequence (Q60492 whole entry): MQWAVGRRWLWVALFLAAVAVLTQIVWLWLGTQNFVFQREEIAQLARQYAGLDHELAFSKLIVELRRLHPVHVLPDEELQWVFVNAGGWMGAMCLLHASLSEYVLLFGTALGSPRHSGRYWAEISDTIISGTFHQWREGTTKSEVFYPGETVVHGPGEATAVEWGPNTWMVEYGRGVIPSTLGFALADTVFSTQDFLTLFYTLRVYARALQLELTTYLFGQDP
# Test Protocol: Displacement of [3H](+)-pentazocine ((+)-[2S-(2R,6R,11R)]-1,2,3,4,5,6-hexahydro-6,11-dimethyl- 3-(3-methyl-2-butenyl)-2,6-methano-3-benzazocine- 8-ol) from sigma 1 receptor in Dunkin guinea pig brain membrane by radioreceptor binding assay
pKi: −log10 of the molar value.
Answer not satisfied if pKi is under 8, and satisfied if it is 8 or more.

# Compound, Group
rows = [
    ("COc1cccc2c1CCCC2CCCC1CCN(C2CCCCC2)CC1 (configuration not stated)", "satisfied"),
    ("COc1cccc2c1CCCC2CCCN1CCN(CCCC2CCCc3c(OC)cccc32)CC1 (configuration not stated)", "not satisfied"),
    ("COc1cccc2c1CCCC2CCCN1CCC(O)(C2CCCCC2)CC1 (configuration not stated)", "satisfied"),
    ("COc1cccc2c1CCCC2CCCNCC(=O)NC1CCCCC1 (configuration not stated)", "not satisfied"),
    ("COc1cccc2c1CCCC2CCC[N+]1(C)CC[N+](C)(C2CCCCC2)CC1 (configuration not stated)", "not satisfied"),
    ("COc1cccc2c1CCCC2CCCN1CCNCC1 (configuration not stated)", "not satisfied"),
    ("COc1cccc2c1CCCC2NCCN1CCC(C2CCCCC2)CC1 (configuration not stated)", "satisfied"),
    ("O=C(C1CCCCC1)N1CCN(C2CCCCC2)CC1", "satisfied"),
    ("COc1cccc2c1CCCC2CCCN1CCC(C2CCCCC2)CC1 (configuration not stated)", "not satisfied"),
    ("CC(=O)N1CCN(C)CC1", "not satisfied"),
    ("COc1cccc2c1CCCC2CCCCCN1CCC(C2CCCCC2)CC1 (configuration not stated)", "not satisfied"),
    ("C1CCC(N2CCN(C3CCCCC3)CC2)CC1", "satisfied"),
]
